Data origin: paper PMC5342230

Biological target: catalytic subunit of human protein kinase CK2 (hCK2α) (Homo sapiens)
Construct: made in house
Sequence (P68400 whole entry): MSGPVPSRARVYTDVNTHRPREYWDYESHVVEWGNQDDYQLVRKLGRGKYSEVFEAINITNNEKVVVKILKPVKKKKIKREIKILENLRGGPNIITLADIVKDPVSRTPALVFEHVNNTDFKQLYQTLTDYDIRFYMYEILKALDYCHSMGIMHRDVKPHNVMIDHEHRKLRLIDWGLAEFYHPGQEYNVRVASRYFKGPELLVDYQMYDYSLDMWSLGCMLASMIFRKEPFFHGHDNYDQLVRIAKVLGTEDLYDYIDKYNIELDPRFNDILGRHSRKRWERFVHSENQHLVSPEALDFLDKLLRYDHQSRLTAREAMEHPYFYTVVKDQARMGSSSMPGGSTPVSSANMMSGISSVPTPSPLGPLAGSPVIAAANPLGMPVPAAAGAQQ
Experiment: Reverse ITC with MST-derived Kd (two types of binding sites, Kd constrained)
Conditions: constrained based on the MST-derived binding affinities; read-out: Kd2
Give pKd for every item shown.
Answers are plain numbers, as −log10 of the molar value.

Brc1cc2nn[nH]c2cc1Br [5,6-Br2Bt, 5,6-dibromobenzotriazole] | 5.36
Brc1ccc2nn[nH]c2c1 [5-BrBt] | 5.20

Next compound, please.
[ask] Given the entry Brc1cc2[nH]nnc2c(Br)c1Br [4,5,6-Br3Bt, 4,5,6-tribromobenzotriazole] , report its measured pKd.
[reply] 5.34
